assay_overview: P. aeruginosa biofilm formation inhibitors, primary screen, PAO1 strain, BacTiter-Glo luminescence, LB-PBS (AID 1144)
conditions: 12 h, higher = more signal
Tick 1.0 if z-score is -0.2 or greater. Tick 0.0 if z-score is less than -0.2.

Record excerpt, results attached:
molecule	label_class
NC(=O)NCC#Cc1ccc2c(c1)[C@]1(C(=O)N2)[C@H](C(=O)O)[C@H]2C(=O)O[C@H](c3ccccc3)[C@H](c3ccccc3)N2[C@@H]1c1ccccc1OCCO	0.0
COc1cc(CO)cc(I)c1O[C@H]1C=C(C(=O)NCCO)C[C@@H](N(CC2CCCCC2)C(=O)c2ccc(C(F)(F)F)cc2)[C@@H]1O	0.0
CC(C)(C)OC(=O)CC[C@@]1(C(=O)O)N=C(c2ccc(OCCCO)cc2)O[C@@H]1c1ccccc1	0.0
CN1C(=O)[C@@]2(CCS(=O)(=O)c3ccccc3)N=C(c3ccc(OCCCO)cc3)O[C@H]2c2ccccc21	0.0

Has CN1C(=O)C2C=CC(C(O)Cc3ccccc3)N(N(c3ccccc3)c3ccccc3)C2C1=O (stereo not given) a recorded z-score greater than or equal to -0.2?
0.0

Does the reported z-score for `C=CCNC(=O)[C@@H]1[C@H]2C(=O)O[C@H](c3ccccc3)[C@H](c3ccccc3)N2[C@H](c2ccc(OCCO)cc2)[C@@]12C(=O)N(C(=O)OCCOC)c1ccc(C#CC3=CCCCC3)cc12` fall at or above the -0.2 mark?
1.0

Exam item: decide whether the reported z-score for `CC(C)C[C@@H]1NC(=O)[C@H]2C[C@@H](C(=O)NCCCCCC[N+](C)(C)C)[C@@H](c3cccc(OCCO)c3)N2C1=O` is at least -0.2.
0.0

Hello, I need to know if `COC(=O)Cn1c(C(=O)N2CCCC2)cc2c1C[C@H]1CN(C(=O)c3ccccc3)[C@@](Cc3ccc(F)cc3)(C(=O)OC)[C@@H]21` has measured z-score not below -0.2. Thanks!
0.0

Reported z-score reaches at least -0.2 for CN1C2C=C(CCCO)C(C3C(=O)N(C(N)=O)C(=O)C32)C1c1cccs1 (stereo not given) ?
1.0

Is the recorded value of z-score equal to or greater than -0.2 for this molecule? `O=C(CCCCCCC(=O)Nc1ccccc1)N/N=C/c1ccccc1`
1.0

====

assay_overview: fission yeast growth modulation, primary screen, strain 972, OD600, 24 h, no modulator (AID 1090);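 further: basal condition with compound alone and no growth modifier present; test concentration not given here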
conditions: S. pombe 972 growth, higher = more signal, called active from +8 up or from −8 down
# cutoff -0.08 applies to z-score; >= gives 1 (yes), < gives 0 (no)

compound	label_class
C=C[C@H](COC(C)=O)NS(=O)(=O)c1ccc(Br)cc1	0 (no)

Kindly determine if z-score recorded for `C=C(COC)/C(=C/C[C@@H](OC(=O)c1ccncc1)c1ccc(CO)o1)c1cnc2ccccc2c1` is above or exactly -0.08.
1 (yes)

Answer whether z-score of `O=C1O[C@@H](c2ccccc2)[C@@H](c2ccccc2)N2[C@@H](c3ccccc3OCCO)[C@]3(C(=O)Nc4ccc(C#CCCO)cc43)[C@@H](C(=O)N3CCN(c4ncccn4)CC3)[C@H]12` is greater than or equal to -0.08.
0 (no)

Determine whether this compound has z-score no lower than -0.08: CC1CC/C=C\[C@H]2OC34C=CCN(CCN5CCOCC5)C(=O)[C@H]3N(CCO)C(=O)[C@@H]4C2C(=O)O1 (some centres not stated)
1 (yes)

Decide: z-score of O=C1OCC=C[C@H]2OC34C=CCN(Cn5nnc6ccccc65)C(=O)[C@H]3N(CCCCCCO)C(=O)[C@@H]4[C@@H]12 (some centres not stated) >= -0.08?
0 (no)

Does the compound `COc1ccccc1CN1C(=O)c2ccccc2[C@@H](C(=O)NC(C)C)[C@@H]1c1ccc(CO)cc1` have recorded z-score that is -0.08 or more?
0 (no)

Please indicate if the recorded z-score for O=C1C2C=CC(C(O)c3cc(C(F)(F)F)cc(C(F)(F)F)c3)N(Nc3ccc([N+](=O)[O-])cc3)C2C(=O)N1c1ccccc1 (configuration not stated) meets or exceeds -0.08.
1 (yes)

Given the entry `CON(C)C(=O)C=C1C[C@@H](c2cccc(Cl)c2)O[C@@H](c2cccc(Cl)c2)O1` , answer whether its z-score meets or surpasses -0.08.
0 (no)

Form field: z-score at least -0.08? Entry: `C=CCOC(=O)[C@@H]1[C@H]2C(=O)O[C@H](c3ccccc3)[C@H](c3ccccc3)N2[C@H](c2ccc(OCCOC(=O)[C@H]3C[C@H]4C(=O)N[C@@H](CCCCNC(C)=O)C(=O)N4[C@H]3c3cccc(OCCO)c3)cc2)[C@@]12C(=O)Nc1ccc(I)cc12`
1 (yes)

Quick check, z-score >= -0.08? `C=C(/C(=C/C[C@@H](OC(=O)c1ccncc1)c1ccccc1OCCO)c1cc(C(=O)OC)ccc1OC)C(C)C`
0 (no)

Please tell me: is the compound `O=C(O)[C@H]1C[C@H]2C(=O)N3CCC[C@H]3C(=O)N2[C@H]1c1cccc(OCCO)c1` at or over -0.08 in terms of z-score?
0 (no)

Please check the record `CC(C)CNC(=O)[C@@]1(c2ccc([N+](=O)[O-])cc2)CC(=O)N(C2CCCCC2)[C@@H]1c1ccc(CO)cc1I` and state if its z-score is at or above -0.08.
1 (yes)

====

assay_overview: HepG2 cell viability effects, profiling panel, calcein-AM fluorescence, 48 h, basal (AID 1164); further: test concentration not given here
conditions: higher = more signal
This listing pairs compounds with measured z-score.
// return a plain number; no unit text

Example compounds with recorded z-score:
>>> print(df.to_string())
                           structure_string  observed_measurement
0  C=C(CCCC)C(=O)CC[C@@H](OC(=O)c1ccccc1-c1ccccc1C(=O)O)c1cccc(OCCO)c1                 0.215
1  CCOC(=O)C[C@H]1[C@H](OC(=O)c2ccc(-c3ccccc3)cc2)[C@@H](NC(=O)C2CCCCC2)c2cc(OCCCO)ccc2N1C(=O)c1ccccc1                 0.137
2  C=CCN1C(=O)[C@@]2(CCC(=O)OC(C)(C)C)N=C(c3ccc(OCCCO)cc3)O[C@H]2c2ccccc21                 -2.35
3  COc1c(C)cc(-c2cc3c(c(-c4ccccc4)n2)[Si](C(C)C)(C(C)C)OC3)cc1C                 -0.43

z-score lookup needed for `O=c1cccc(-c2ccc(C(F)(F)F)cc2)o1` , thanks.
-0.701

====

assay_overview: E. coli acrAB mutant growth effects, primary screen, E. coli filamentation inducers, strain DRC39, OD650, 24 h (AID 1178);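 further: growth measured as culture turbidity by optical density at 650 nm; test concentration not given here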
conditions: higher = more signal, called active from +8 up or from −8 down
Please enter 1 where z-score is greater than or equal to 0.2, and 0 where it is lower.

Below, 2 compounds whose answers are already recorded.
compound	label_class
CCCC=C(CCC)[C@@H](NP(=O)(c1ccccc1)c1ccccc1)c1ccc(C(F)(F)F)cc1	1
CC(C)(C)OC(=O)CC[C@]1(C(=O)NCCN2CCOCC2)N=C(c2ccc(OCCCO)cc2)O[C@H]1c1ccccc1N=[N+]=[N-]	1

Here's the next entry for you.
Is z-score at least 0.2? Consider `C=C(COC)/C(=C/C[C@@H](OC(=O)c1ccncc1)c1ccc(OCCO)cc1)c1cnc2ccccc2c1`
1

====

assay_overview: small-molecule binders of probe aLefty1, primary screen, biochemical, small-molecule microarray, 635/667 nm fluorescence (AID 1153);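 further: score merges spot fluorescence with signal-to-noise ratio from the scanned slide images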
conditions: higher = more signal
measured_attribute: composite z-score
# print the numeric value only

Recorded composite z-score, per entry:
molecule	composite z-score
C=CC[C@@]1(C(=O)N2CCCCC2)N=C(c2ccc(OCCCO)cc2)O[C@@H]1c1ccccc1	0.683
COc1cc2c(cc1O)C(C)N(Cc1cc3c(cc1Br)OCO3)CC2 (stereo not given)	-0.0196
C=CCNC(=O)[C@@H]1[C@H]2C(=O)O[C@H](c3ccccc3)[C@H](c3ccccc3)N2[C@H](c2ccc(OCCO)cc2)[C@@]12C(=O)N(C(=O)OCCOC)c1ccc(C#CC3=CCCCC3)cc12	0.173
CC(=O)n1cc(C(O)C2C=CC3C(=O)N(Cc4ccccc4)C(=O)C3N2n2cnnc2)c2ccccc21 (stereo not given)	-0.0867
CC(C)CN1C(=O)[C@@]2(c3ccc([N+](=O)[O-])cc3)CC(=O)N(CC34CC5CC(CC(C5)C3)C4)[C@@H]2c2ccc(CO)cc21	0.129

Fill in the blank: the reported composite z-score of `CCCC[C@@H]1C[C@H]1[C@@H](NC(=O)c1cccnc1)c1ccc(-c2ccccc2)cc1` is ____.
-0.105

# input molecule: `COCCCNC(=O)[C@@]1(Sc2ccc(C)cc2)CC(=O)N(Cc2cc(C(F)(F)F)cc(C(F)(F)F)c2)[C@@H]1c1ccc(CO)cc1` ; wanted: its composite z-score
-0.0559

Data origin: PubChem BioAssay
